- Assay Procedure: In vivo pharmacokinetic analysis
- Condition Parameters: male, CD-1 (ICR), mouse, plasma, iv, 1 mg/kg
Quantity Name: clearance (mL/min/kg)
// units = mL/min/kg; emit number, no label

Given the compound CS(=O)(=O)N1CCC(C#CC(=O)N2CCCC(c3ccc(Cl)c(Cl)c3)C2)C1 (stereo not shown) [compound 5] , write its reported clearance.
112

###

- Assay Procedure: In vivo pharmacokinetic analysis
- Condition Parameters: male, CD-1 (ICR), mouse, plasma, sc, 25 mg/kg
Quantity Name: half-life (min)
Kindly provide the numeric value in min only, without the unit symbol.

// Input: CS(=O)(=O)N1CCC(C#CC(=O)N2CCCC(c3ccc(Cl)c(Cl)c3)C2)C1 (stereo not shown) . Output its half-life only.
21.6

###

- Assay Procedure: In vivo pharmacokinetic analysis
- Condition Parameters: male, CD-1 (ICR), mouse, plasma, sc, 25 mg/kg
Quantity Name: bioavailability (%)
Numeric only. Scale: %

Input CS(=O)(=O)N1CCC(C#CC(=O)N2CCCC(c3ccc(Cl)c(Cl)c3)C2)C1 (stereo not shown) [compound 5] , output reported bioavailability.
78.3

###

- Assay Procedure: In vivo pharmacokinetic analysis
- Condition Parameters: male, CD-1 (ICR), mouse, plasma, sc, 25 mg/kg
Quantity Name: AUC(0-t) (ng·h/mL)
Express it in ng·h/mL; write the number only.

Fill in AUC(0-t) for record CS(=O)(=O)N1CCC(C#CC(=O)N2CCCC(c3ccc(Cl)c(Cl)c3)C2)C1 (stereo not shown) [compound 5]
2930

###

- Assay Procedure: In vivo pharmacokinetic analysis
- Condition Parameters: male, CD-1 (ICR), mouse, plasma, iv, 1 mg/kg
Quantity Name: Cmax (ng/mL)
Numbers only here, please. The scale is ng/mL.

Answer with the recorded Cmax for the molecule listed here: CS(=O)(=O)N1CCC(C#CC(=O)N2CCCC(c3ccc(Cl)c(Cl)c3)C2)C1 (stereo not shown)
1610

###

- Assay Procedure: In vivo pharmacokinetic analysis
- Condition Parameters: male, CD-1 (ICR), mouse, plasma, sc, 25 mg/kg
Quantity Name: Cmax (ng/mL)
Dear colleague, please return just the value in ng/mL, with no unit written.

Look up and report measured Cmax for this entry: CS(=O)(=O)N1CCC(C#CC(=O)N2CCCC(c3ccc(Cl)c(Cl)c3)C2)C1 (stereo not shown) [compound 5]
3380
